Recorded values, source patent US20140087995A1.

- Study System: T1, human amylin receptor (amylin 3(a) receptor: human calcitonin receptor co-expressed with RAMP-3) (human, UniProt P30988 25-474; O60896 24-148)
- T1 construct: whole, on cells; functional assay (Assay IIa) used the whole cells; also called hAmylin-R; hAmylinR
- T1 sequence (looked up) 1: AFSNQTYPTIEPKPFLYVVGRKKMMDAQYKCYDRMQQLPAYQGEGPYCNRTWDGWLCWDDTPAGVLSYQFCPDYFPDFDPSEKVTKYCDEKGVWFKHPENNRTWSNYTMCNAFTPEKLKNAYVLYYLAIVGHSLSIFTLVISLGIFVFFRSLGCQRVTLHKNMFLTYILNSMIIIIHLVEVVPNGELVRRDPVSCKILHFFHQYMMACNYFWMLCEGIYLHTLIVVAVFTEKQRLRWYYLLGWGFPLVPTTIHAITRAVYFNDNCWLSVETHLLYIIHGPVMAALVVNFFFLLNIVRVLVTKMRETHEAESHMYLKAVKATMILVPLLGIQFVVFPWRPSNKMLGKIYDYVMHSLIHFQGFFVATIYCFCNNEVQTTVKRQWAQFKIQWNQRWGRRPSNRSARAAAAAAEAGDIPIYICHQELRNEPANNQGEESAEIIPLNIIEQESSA
- T1 sequence (looked up) 2: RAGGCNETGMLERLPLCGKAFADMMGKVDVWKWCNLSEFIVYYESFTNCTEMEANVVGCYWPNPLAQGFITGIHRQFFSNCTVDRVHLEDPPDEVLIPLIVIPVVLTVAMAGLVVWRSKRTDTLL
- Experiment Notes: SPA competition binding, membranes of Amylin 3(a)/CRE-luc BHK cells, displacement of 125I-rat amylin (Assay V)
Numbered stars: 1 amine (or outer) side, 2 acyl side, 3 side chain; on linkers, the order of the positions; unused ones are H or OH. Bridge positions count the residues as written; N and C are the ends. Side chains are listed from the residue outwards. Ends that are not written are not given here. * marks the point of attachment. C20 diacid = O=C(O)CCCCCCCCCCCCCCCCCCC(=O)*; γGlu = O=C(O)[C@H](CCC(=O)[*:2])N[*:1]
This listing pairs binders with measured pIC50.
Remember, pIC50 is on a log scale: it is -log10 of the molar concentration.

Sure, the documented pIC50 for K([γGlu-γGlu-C20 diacid])CNTATCATQRLAEFLRHSSNNPGAILSSTNVGPETY-NH2 (disulfide 2-7 (inferred), Synthetic acylated analogue of human amylin) is 8.93

Given item K([γGlu-γGlu-C20 diacid])CNTATCATQRLAEFLRHSSPNFGAIPSSTNVGPNTF-NH2 (disulfide 2-7 (inferred), Synthetic acylated analogue of human amylin) , the value recorded as its pIC50 is 9.82

pIC50 reported for this binder K([γGlu-γGlu-C20 diacid])CNTATCATQRLAEFLRHSSPNFGAIPSSTNVGPETP-NH2 (disulfide 2-7 (inferred), Synthetic acylated analogue of human amylin) : 9.27

Form field pIC50, entry K([γGlu-C20 diacid])CNTATCATQRLAEFLRHSSPNFGAIPSSTNVGSHTY-NH2 (disulfide 2-7 (inferred), Synthetic acylated analogue of human amylin) : 9.00
